# Experimental System: 5-hydroxytryptamine receptor 5A (Homo sapiens, UniProt P47898)
# Sequence (P47898 whole entry): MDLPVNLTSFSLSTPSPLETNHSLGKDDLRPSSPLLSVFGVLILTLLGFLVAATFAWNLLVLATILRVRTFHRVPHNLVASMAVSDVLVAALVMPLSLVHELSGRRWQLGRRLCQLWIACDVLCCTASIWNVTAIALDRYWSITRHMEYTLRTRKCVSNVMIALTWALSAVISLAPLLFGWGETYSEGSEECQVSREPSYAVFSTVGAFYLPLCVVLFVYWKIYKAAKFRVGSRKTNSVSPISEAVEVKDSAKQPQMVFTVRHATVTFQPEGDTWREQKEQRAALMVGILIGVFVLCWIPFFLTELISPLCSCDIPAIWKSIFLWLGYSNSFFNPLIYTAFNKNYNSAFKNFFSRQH
# Protocol Summary: Counterscreen for agonists of OPRM1-OPRD1 heterodimerization: luminescence-based cell-based high throughput dose response assay to identify agonists of 5-hydroxytryptamine (serotonin) 5A receptor (HTR5A). [Related pubchem assays (depositor defined):AID504326, AID504355, AID504692, AID504904, AID504905]
# Assay type: functional
Active and inactive are the calls of the source. How the calls were made is not given here.

- Compound: "CCc1cccc(C)c1N=C(S)NCC(c1cccnc1)N(C)C (stereo not given)"
  Experimental System: "5-hydroxytryptamine receptor 5A (Homo sapiens, UniProt P47898)"
  EC50: "> 92.5 µM (inactive)"
- Compound: "CN(C)CCCN(C(=O)c1ccc(S(=O)(=O)N2CCc3ccccc3C2)cc1)c1nc2c(F)cc(F)cc2s1"
  Experimental System: "5-hydroxytryptamine receptor 5A (Homo sapiens, UniProt P47898)"
  EC50: "> 92.5 µM (inactive)"
- Compound: "CSC(=Nc1ccccc1)N=C(SCc1ccccc1)N(C)C"
  Experimental System: "5-hydroxytryptamine receptor 5A (Homo sapiens, UniProt P47898)"
  EC50: "> 92.4 µM (inactive)"
- Compound: "CCc1ccc(Nc2n[n+](-c3ccccc3)c(-c3c(Cl)cccc3Cl)s2)cc1"
  Experimental System: "5-hydroxytryptamine receptor 5A (Homo sapiens, UniProt P47898)"
  EC50: "> 92.5 µM (inactive)"
- Compound: "CCOC(=O)C1(CC2CC2)CCN(Cc2cnc(-c3ccccc3C)nc2)CC1"
  Experimental System: "5-hydroxytryptamine receptor 5A (Homo sapiens, UniProt P47898)"
  EC50: "> 92.5 µM (inactive)"

* * *

Observed AC50 for Cytochrome P450 1A2 (Homo sapiens, UniProt P05177), reported per entry below.

- Compound: "CCC#CCOCC(=S)Nc1ccccc1"
  AC50: "15.8 µM (inconclusive)"
- Compound: "CCC(C)(C)n1nnnc1C(c1cc2cc3c(cc2nc1O)OCO3)N1CCCCC1 (stereo not drawn)"
  AC50: "17.8 µM (inconclusive)"
- Compound: "CC1=NN(c2ccccc2)C(=O)[C@@H]1/N=N\\c1ccc([As](=O)(O)O)c(O)c1"
  AC50: "5.01 µM (inconclusive)"
- Compound: "COCC(=O)O[C@]1(CCN(C)CCCc2nc3ccccc3[nH]2)CCc2cc(F)ccc2[C@@H]1C(C)C [MIBEFRADIL]"
  AC50: "31.6 µM (inconclusive)"
- Compound: "CCN(CC)C[C@@H]1CCCCN1CC(=O)N1c2ccccc2C(=O)Nc2cccnc21"
  AC50: "31.6 µM (inconclusive)"
- Compound: "COc1cccc(Nc2ncc3nc(-c4ccccc4)c(=O)n(Cc4cccs4)c3n2)c1"
  AC50: "20 µM (inconclusive)"
- Compound: "CC(=O)c1ccc(N2CCC(c3cc(-c4ccc(Cl)cc4)[nH]n3)CC2)c([N+](=O)[O-])c1"
  AC50: "2.82 µM (inconclusive)"
- Compound: "N[C@@H](COP(=O)(O)O)C(=O)O [DEXFOSFOSERINE]"
  AC50: "25.1 µM (inconclusive)"
- Compound: "Cc1nc(S(=O)(=O)N2CCOCC2)c(C#N)c(C)c1Cl"
  AC50: "1 µM (inconclusive)"
- Compound: "CC(=O)NNC(=O)N1Cc2ccccc2Oc2ccc(Cl)cc21"
  AC50: "31.6 µM (inconclusive)"
- Compound: "Cc1ccc(-c2ccc(=O)n(CC(=O)NCc3ccco3)n2)cc1"
  AC50: "15.8 µM (inconclusive)"
- Compound: "CCN(C(=O)Cn1c(=O)oc2ccccc21)c1cccc(C(F)(F)F)c1"
  AC50: "39.8 µM (inconclusive)"
- Compound: "O=C(CCl)Nc1ccc(Oc2cnc3ccccc3n2)cc1"
  AC50: "8.91 µM (inconclusive)"
- Compound: "O=C(O)c1cc2cc(OCc3ccccc3)ccc2[nH]1"
  AC50: "6.31 µM (inconclusive)"
- Compound: "NS(=O)(=O)c1cc(C(=O)O)c(Cl)c([N+](=O)[O-])c1Cl"
  AC50: "1.26 µM (inconclusive)"
- Compound: "CN1C(=O)COc2c(C(=O)N[C@@H]3CN4CCC3CC4)cc(Cl)cc21"
  AC50: "39.8 µM (inconclusive)"
- Compound: "CCOC(=O)c1c(NC(=O)/C=C/c2ccc3c(c2)OCO3)sc(C)c1CC"
  AC50: "12.6 µM (inconclusive)"
- Compound: "CCC(=O)OCc1c(C(F)(F)F)nn(C)c1Sc1ccc(F)cc1"
  AC50: "12.6 µM (inconclusive)"

// provenance: ChEMBL document CHEMBL1201862
